# targetOrSystem: purified human, His-tagged PRC2 complex (Homo sapiens (Human), UniProt O75530)
# Sequence (O75530 whole entry): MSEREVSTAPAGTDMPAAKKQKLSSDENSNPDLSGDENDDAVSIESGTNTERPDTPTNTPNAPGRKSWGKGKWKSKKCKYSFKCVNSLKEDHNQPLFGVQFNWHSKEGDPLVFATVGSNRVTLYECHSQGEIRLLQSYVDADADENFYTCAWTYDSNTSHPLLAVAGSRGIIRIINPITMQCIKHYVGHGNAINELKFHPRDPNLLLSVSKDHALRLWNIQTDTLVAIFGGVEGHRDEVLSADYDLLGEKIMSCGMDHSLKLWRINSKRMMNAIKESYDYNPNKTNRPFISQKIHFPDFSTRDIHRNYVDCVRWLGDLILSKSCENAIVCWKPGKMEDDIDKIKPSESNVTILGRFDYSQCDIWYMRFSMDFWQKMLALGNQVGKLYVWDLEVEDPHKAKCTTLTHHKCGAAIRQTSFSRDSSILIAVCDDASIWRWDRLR
# Sequence (Q15910 whole entry partner): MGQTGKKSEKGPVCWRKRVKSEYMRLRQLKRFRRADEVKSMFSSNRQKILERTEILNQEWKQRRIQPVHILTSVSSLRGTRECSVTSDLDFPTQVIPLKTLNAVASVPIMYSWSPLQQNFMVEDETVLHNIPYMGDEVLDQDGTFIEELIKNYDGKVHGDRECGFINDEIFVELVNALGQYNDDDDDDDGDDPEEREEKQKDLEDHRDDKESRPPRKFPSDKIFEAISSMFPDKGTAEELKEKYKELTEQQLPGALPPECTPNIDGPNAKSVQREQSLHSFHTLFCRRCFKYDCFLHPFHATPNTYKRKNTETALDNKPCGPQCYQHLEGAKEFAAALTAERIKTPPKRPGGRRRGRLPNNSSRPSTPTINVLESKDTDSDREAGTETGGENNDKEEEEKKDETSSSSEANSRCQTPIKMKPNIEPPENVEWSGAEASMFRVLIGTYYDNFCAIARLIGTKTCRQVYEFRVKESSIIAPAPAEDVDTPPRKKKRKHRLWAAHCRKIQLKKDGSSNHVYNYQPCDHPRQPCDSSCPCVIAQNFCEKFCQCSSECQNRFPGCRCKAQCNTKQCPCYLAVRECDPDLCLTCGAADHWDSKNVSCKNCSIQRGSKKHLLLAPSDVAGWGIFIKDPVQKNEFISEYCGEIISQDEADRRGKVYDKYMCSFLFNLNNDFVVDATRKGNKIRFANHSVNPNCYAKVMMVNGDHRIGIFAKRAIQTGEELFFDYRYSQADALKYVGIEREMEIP
# Sequence (Q15022 whole entry partner): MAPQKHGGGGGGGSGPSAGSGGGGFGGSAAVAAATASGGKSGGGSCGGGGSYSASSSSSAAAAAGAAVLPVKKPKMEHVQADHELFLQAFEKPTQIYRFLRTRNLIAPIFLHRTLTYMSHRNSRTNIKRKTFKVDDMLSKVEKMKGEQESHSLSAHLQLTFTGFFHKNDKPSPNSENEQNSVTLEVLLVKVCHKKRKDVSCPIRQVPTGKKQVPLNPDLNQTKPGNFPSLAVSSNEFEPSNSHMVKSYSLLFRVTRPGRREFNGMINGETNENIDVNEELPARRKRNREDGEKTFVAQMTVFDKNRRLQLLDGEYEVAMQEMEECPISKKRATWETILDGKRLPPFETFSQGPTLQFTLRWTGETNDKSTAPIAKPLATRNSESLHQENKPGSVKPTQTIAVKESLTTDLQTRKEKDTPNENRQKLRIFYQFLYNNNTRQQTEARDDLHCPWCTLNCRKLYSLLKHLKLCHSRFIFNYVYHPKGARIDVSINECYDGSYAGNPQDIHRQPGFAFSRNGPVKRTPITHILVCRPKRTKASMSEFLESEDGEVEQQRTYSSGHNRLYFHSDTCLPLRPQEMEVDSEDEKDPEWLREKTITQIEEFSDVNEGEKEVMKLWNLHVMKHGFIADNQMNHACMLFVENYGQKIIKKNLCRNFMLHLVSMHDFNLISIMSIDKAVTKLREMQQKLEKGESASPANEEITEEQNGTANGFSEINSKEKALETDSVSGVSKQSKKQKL
# Sequence (Q6ZN18 whole entry partner): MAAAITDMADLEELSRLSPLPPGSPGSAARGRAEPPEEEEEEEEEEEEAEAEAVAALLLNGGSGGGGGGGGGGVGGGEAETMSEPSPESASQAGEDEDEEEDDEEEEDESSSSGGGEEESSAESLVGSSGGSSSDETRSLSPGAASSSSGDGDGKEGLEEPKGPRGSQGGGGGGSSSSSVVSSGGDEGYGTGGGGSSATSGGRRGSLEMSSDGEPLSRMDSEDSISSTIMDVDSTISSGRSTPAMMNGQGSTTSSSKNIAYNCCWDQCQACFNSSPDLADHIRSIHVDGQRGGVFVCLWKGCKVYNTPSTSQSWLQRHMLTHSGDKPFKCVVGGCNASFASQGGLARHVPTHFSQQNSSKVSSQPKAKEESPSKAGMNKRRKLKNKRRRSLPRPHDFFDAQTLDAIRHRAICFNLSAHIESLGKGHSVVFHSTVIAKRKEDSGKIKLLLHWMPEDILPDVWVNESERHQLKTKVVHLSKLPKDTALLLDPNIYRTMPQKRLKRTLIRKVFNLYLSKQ
# Sequence (Q09028 whole entry partner): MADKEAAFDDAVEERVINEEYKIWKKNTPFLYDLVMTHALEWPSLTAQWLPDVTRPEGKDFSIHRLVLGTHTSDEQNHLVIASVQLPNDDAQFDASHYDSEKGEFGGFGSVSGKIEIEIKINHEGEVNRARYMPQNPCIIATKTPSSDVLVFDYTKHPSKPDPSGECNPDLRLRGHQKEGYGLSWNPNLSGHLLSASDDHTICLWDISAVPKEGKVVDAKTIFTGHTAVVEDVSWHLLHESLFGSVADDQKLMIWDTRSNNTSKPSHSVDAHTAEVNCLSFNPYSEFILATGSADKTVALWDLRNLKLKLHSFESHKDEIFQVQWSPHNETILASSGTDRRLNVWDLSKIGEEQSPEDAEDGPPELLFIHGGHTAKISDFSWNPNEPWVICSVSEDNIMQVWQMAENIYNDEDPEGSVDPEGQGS
# testMethodNotes: Hot Spot HMT assay, inhibition of PRC2 enzymatic activity
# studyConditions: 10 nM PRC2 complex, 1 μM 3H-SAM, core histone H3, 10-point dose-response
# IC50 per entry
readoutLabel: IC50

{"compound": "Cc1cc(S(=O)(=O)N(C)C)ccc1-c1cnc(NCc2c(F)ccc3c2CCO3)n2cc(C#N)nc12", "targetOrSystem": "purified human, His-tagged PRC2 complex (Homo sapiens (Human), UniProt O75530)", "readoutLabel": "IC50", "observedResult": "< 100 nM"}
{"compound": "CNC(=O)c1ccc(-c2cnc(NCc3c(F)ccc4c3CCO4)n3cc(C#N)nc23)cc1", "targetOrSystem": "purified human, His-tagged PRC2 complex (Homo sapiens (Human), UniProt O75530)", "readoutLabel": "IC50", "observedResult": "< 100 nM"}
{"compound": "N#Cc1cn2c(NCc3c(F)ccc4c3CCO4)ncc(-c3cnn4c3CCC4)c2n1", "targetOrSystem": "purified human, His-tagged PRC2 complex (Homo sapiens (Human), UniProt O75530)", "readoutLabel": "IC50", "observedResult": "< 100 nM"}
{"compound": "CN(C)Cc1ccc(-c2cnc(NCc3c(F)ccc4c3CCO4)n3cc(C#N)nc23)c(F)c1F", "targetOrSystem": "purified human, His-tagged PRC2 complex (Homo sapiens (Human), UniProt O75530)", "readoutLabel": "IC50", "observedResult": "< 100 nM"}
{"compound": "N#Cc1cn2c(NCc3c(F)ccc4c3CCO4)ncc(-c3cc[nH]c(=O)c3)c2n1", "targetOrSystem": "purified human, His-tagged PRC2 complex (Homo sapiens (Human), UniProt O75530)", "readoutLabel": "IC50", "observedResult": "< 100 nM"}
{"compound": "CN(C)Cc1ncc(-c2cnc(NCc3c(F)ccc4c3CCO4)n3cc(C#N)nc23)cn1", "targetOrSystem": "purified human, His-tagged PRC2 complex (Homo sapiens (Human), UniProt O75530)", "readoutLabel": "IC50", "observedResult": "< 100 nM"}
{"compound": "Cc1cc(C2CCCN2)ccc1-c1cnc(NCc2c(F)ccc3c2CCO3)n2cc(C#N)nc12 (single isomer, unassigned) [Example 213]", "targetOrSystem": "purified human, His-tagged PRC2 complex (Homo sapiens (Human), UniProt O75530)", "readoutLabel": "IC50", "observedResult": "< 100 nM"}
{"compound": "Cc1cc(-c2cnc(NCc3c(F)ccc4c3C(O)CO4)n3cc(C#N)nc23)n(C)n1 (stereo not shown)", "targetOrSystem": "purified human, His-tagged PRC2 complex (Homo sapiens (Human), UniProt O75530)", "readoutLabel": "IC50", "observedResult": "< 100 nM"}
{"compound": "Cc1cc(-c2cnc(NCc3c(F)ccc4c3CCCO4)n3cc(C#N)nc23)n(C)n1", "targetOrSystem": "purified human, His-tagged PRC2 complex (Homo sapiens (Human), UniProt O75530)", "readoutLabel": "IC50", "observedResult": "> 500 nM"}
{"compound": "N#Cc1cn2c(NCc3c(F)ccc4c3CCO4)ncc(-c3ccc(CN4CCOCC4)cc3)c2n1", "targetOrSystem": "purified human, His-tagged PRC2 complex (Homo sapiens (Human), UniProt O75530)", "readoutLabel": "IC50", "observedResult": "< 100 nM"}
{"compound": "N#Cc1cn2c(NCc3c(F)ccc4c3CCO4)ncc(-c3ccc(CO)nc3)c2n1", "targetOrSystem": "purified human, His-tagged PRC2 complex (Homo sapiens (Human), UniProt O75530)", "readoutLabel": "IC50", "observedResult": "100 to 500 nM"}
{"compound": "COc1cc(C)c(-c2cnc(NCc3c(F)ccc4c3CCO4)n3cc(C#N)nc23)cn1", "targetOrSystem": "purified human, His-tagged PRC2 complex (Homo sapiens (Human), UniProt O75530)", "readoutLabel": "IC50", "observedResult": "100 to 500 nM"}
{"compound": "Cn1nccc(-c2cnc(NCc3c(F)ccc4c3CCO4)n3cc(C#N)nc23)c1=O", "targetOrSystem": "purified human, His-tagged PRC2 complex (Homo sapiens (Human), UniProt O75530)", "readoutLabel": "IC50", "observedResult": "100 to 500 nM"}

Numbers sourced from patent US20240398811A1.
